- Test system: FXR:RXRa (NR concentration 270 nM, RXRa partner concentration 90 nM)
- assay.explanation: PBM binding z-score (relative to random genomic background probes); higher = stronger binding; sequences stand for … in GC…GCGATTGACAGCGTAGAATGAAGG
Give measured PBM binding z-score for each item. Keep answers brief.
Give bare numbers.

Record PBM binding z-score per entry; entries follow.
1. ATCGTAAGGTCGACGAGGTGAGTATACACCGTTT
2. TTACCAAGGTGAAGGTCGTTCATCCCTCTGTAGA
3. CCTACTGGGCCATTCAAAGGTCATTGATCATATG
4. CCTGCTAGGTCAATGGTCAGCTAGAGCAGCTCGC
5. TCTATTAGTTGAATGGCAACCGACGAGTCCGTTT

[3.07, 1.75, 3.24, 2.73, 1.04]

Please supply PBM binding z-score for each of the following items, keeping them in order.
1. ATCGAAAGGTCGACGAGGTGAGTATCCACCGTTT
2. CATACAGGGTCAGCTTGGCCAGAGTAGGGACGGC

3.97
4.12
